Test system: 636577-100-R-J1-PDC complex spheroid viability
Assay: Anticancer human tumor 636577-100-R-J1-PDC patient-derived endometrial adenocarcinoma cell line growth inhibition [GQUAD]
Details: second compound 3.16 µM; first compound 0.0999 µM; stronger effect = lower value
Entries and their viability, T/C
RECORDED_ENDPOINT: viability, T/C (%)

INSERT INTO results (compound, recorded_endpoint, unit_tag, meas_value) VALUES
  ('Cn1ncnc1[C@H]1c2n[nH]c(=O)c3cc(F)cc(c23)N[C@@H]1c1ccc(F)cc1 + Cc1[nH]c2ccc(F)cc2c1-c1nc2c3cccnc3c3ncccc3c2[nH]1', 'viability, T/C', '%', 35.5),
  ('CC[C@@]1(O)C(=O)OCc2c1cc1n(c2=O)Cc2cc3c(CN(C)C)c(O)ccc3nc2-1 + CN(C)c1ccc(Nc2c3ccc(NC(=O)CCN4CCCC4)cc3nc3cc(NC(=O)CCN4CCCC4)ccc23)cc1', 'viability, T/C', '%', 21.2),
  ('Cn1ncnc1[C@H]1c2n[nH]c(=O)c3cc(F)cc(c23)N[C@@H]1c1ccc(F)cc1 + Cc1cnc(CNC(=O)c2c(=O)c3ccc(N4CCCN(C)CC4)nc3n3c2sc2ccccc23)cn1', 'viability, T/C', '%', 21.7),
  ('Cc1[nH]c2ccccc2c1CCNCc1ccc(/C=C/C(=O)NO)cc1 + Cc1cnc(CNC(=O)c2c(=O)c3ccc(N4CCCN(C)CC4)nc3n3c2sc2ccccc23)cn1', 'viability, T/C', '%', 10.4),
  ('Cc1[nH]c2ccccc2c1CCNCc1ccc(/C=C/C(=O)NO)cc1 + Cc1[nH]c2ccc(F)cc2c1-c1nc2c3cccnc3c3ncccc3c2[nH]1', 'viability, T/C', '%', 9.73),
  ('Cn1ncnc1[C@H]1c2n[nH]c(=O)c3cc(F)cc(c23)N[C@@H]1c1ccc(F)cc1 + CN(C)c1ccc(Nc2c3ccc(NC(=O)CCN4CCCC4)cc3nc3cc(NC(=O)CCN4CCCC4)ccc23)cc1', 'viability, T/C', '%', 25.1),
  ('CCc1c2c(nc3ccc(O)cc13)-c1cc3c(c(=O)n1C2)COC(=O)[C@]3(O)CC + CN(C)c1ccc(Nc2c3ccc(NC(=O)CCN4CCCC4)cc3nc3cc(NC(=O)CCN4CCCC4)ccc23)cc1', 'viability, T/C', '%', 16.8),
  ('Cc1[nH]c2ccccc2c1CCNCc1ccc(/C=C/C(=O)NO)cc1 + CN(C)c1ccc(Nc2c3ccc(NC(=O)CCN4CCCC4)cc3nc3cc(NC(=O)CCN4CCCC4)ccc23)cc1', 'viability, T/C', '%', 10.3);

* * *

Tested on: 636577-100-R-J1-PDC complex spheroid viability
Assay: Anticancer human tumor 636577-100-R-J1-PDC cell line growth inhibition [GQUAD];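 further: viability read after seven days of drug exposure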
Details: curve of first compound; second compound 0.316 µM
pIC50: −log10 of the molar value.
RECORDED_ENDPOINT: pIC50

INSERT INTO assay_data (molecule, recorded_endpoint, qualifier_symbol, meas_value) VALUES
  ('O=C(c1cc(Cc2n[nH]c(=O)c3ccccc23)ccc1F)N1CCN(C(=O)C2CC2)CC1 + Cc1[nH]c2ccc(F)cc2c1-c1nc2c3cccnc3c3ncccc3c2[nH]1', 'pIC50', '=', 5.57),
  ('C#Cc1c(F)ccc2cc(O)cc(-c3ncc4c(N5CC6CCC(C5)N6)nc(OCC56CCCN5CC(F)C6)nc4c3F)c12 (stereo not given) + Cc1cnc(CNC(=O)c2c(=O)c3ccc(N4CCCN(C)CC4)nc3n3c2sc2ccccc23)cn1', 'pIC50', '>', 7.50),
  ('CC[C@@]1(O)C(=O)OCc2c1cc1n(c2=O)Cc2cc3c(CN(C)C)c(O)ccc3nc2-1 + CN(C)c1ccc(Nc2c3ccc(NC(=O)CCN4CCCC4)cc3nc3cc(NC(=O)CCN4CCCC4)ccc23)cc1', 'pIC50', '=', 7.73),
  ('O=C(NO)c1cnc(N2CCN(S(=O)(=O)c3ccc4ccccc4c3)CC2)nc1 + Cc1cnc(CNC(=O)c2c(=O)c3ccc(N4CCCN(C)CC4)nc3n3c2sc2ccccc23)cn1', 'pIC50', '>', 7.50),
  ('Cc1cccc(N(C)C(=O)C2C(O)CCN2c2nc(C)cc(C(F)(F)F)c2C#N)c1 (stereo not given) + CN(C)c1ccc(Nc2c3ccc(NC(=O)CCN4CCCC4)cc3nc3cc(NC(=O)CCN4CCCC4)ccc23)cc1', 'pIC50', '<', 5.00);

* * *

System: 636577-100-R-J1-PDC complex spheroid viability
Test: Anticancer human tumor 636577-100-R-J1-PDC cell line growth inhibition [GQUAD];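 further: viability read after seven days of drug exposure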
Conditions: curve of first compound; second compound 0.316 µM
pIC50: −log10 of the molar value.
Entries and their pIC50
RECORDED_ENDPOINT: pIC50

INSERT INTO assay_data (molecule, qualifier_symbol, meas_value) VALUES
  ('CC1COCCN1c1cc(-c2ccnn2C)c2ccnc(-c3ccn[nH]3)c2n1 (stereo unspecified) + CN(C)c1ccc(Nc2c3ccc(NC(=O)CCN4CCCC4)cc3nc3cc(NC(=O)CCN4CCCC4)ccc23)cc1', '=', 7.27),
  ('Nc1ccn(C2OC(CO)C(O)C2(F)F)c(=O)n1 (stereo unspecified) + CN(C)c1ccc(Nc2c3ccc(NC(=O)CCN4CCCC4)cc3nc3cc(NC(=O)CCN4CCCC4)ccc23)cc1', '>', 7.50),
  ('O=C(NO)c1cnc(N2CCN(S(=O)(=O)c3ccc4ccccc4c3)CC2)nc1 + Cc1[nH]c2ccc(F)cc2c1-c1nc2c3cccnc3c3ncccc3c2[nH]1', '=', 7.32),
  ('Cc1cccc(N(C)C(=O)C2C(O)CCN2c2nc(C)cc(C(F)(F)F)c2C#N)c1 (stereo unspecified) + Cc1cnc(CNC(=O)c2c(=O)c3ccc(N4CCCN(C)CC4)nc3n3c2sc2ccccc23)cn1', '>', 7.50),
  ('C=CC(=O)N1CCN(c2nc(=O)n(-c3c(C)ccnc3C(C)C)c3nc(-c4c(O)cccc4F)c(F)cc23)C(C)C1 (stereo unspecified) + CN(C)c1ccc(Nc2c3ccc(NC(=O)CCN4CCCC4)cc3nc3cc(NC(=O)CCN4CCCC4)ccc23)cc1', '<', 5.00),
  ('C=CCn1c(=O)c2cnc(Nc3ccc(N4CCN(C)CC4)cc3)nc2n1-c1cccc(C(C)(C)O)n1 + Cc1[nH]c2ccc(F)cc2c1-c1nc2c3cccnc3c3ncccc3c2[nH]1', '=', 6.24),
  ('Cc1[nH]c2ccccc2c1CCNCc1ccc(/C=C/C(=O)NO)cc1 + CN(C)c1ccc(Nc2c3ccc(NC(=O)CCN4CCCC4)cc3nc3cc(NC(=O)CCN4CCCC4)ccc23)cc1', '=', 8.32),
  ('COc1cc(C2c3cc4c(cc3C(OC3OC5COC(C)OC5C(O)C3O)C3COC(=O)C23)OCO4)cc(OC)c1O (stereo unspecified) + Cc1cnc(CNC(=O)c2c(=O)c3ccc(N4CCCN(C)CC4)nc3n3c2sc2ccccc23)cn1', '>', 7.50),
  ('CCCS(=O)(=O)Nc1ccc(F)c(C(=O)c2c[nH]c3ncc(-c4ccc(Cl)cc4)cc23)c1F + Cc1[nH]c2ccc(F)cc2c1-c1nc2c3cccnc3c3ncccc3c2[nH]1', '=', 5.15),
  ('CC1COCCN1c1cc(C2(S(C)(=N)=O)CC2)nc(-c2ccnc3[nH]ccc23)n1 (stereo unspecified) + CN(C)c1ccc(Nc2c3ccc(NC(=O)CCN4CCCC4)cc3nc3cc(NC(=O)CCN4CCCC4)ccc23)cc1', '=', 6.33),
  ('CC(C)n1c(=O)n(C)c2cnc3cc(F)c(-c4ccc(OCCCN5CCCCC5)nc4)cc3c21 + CN(C)c1ccc(Nc2c3ccc(NC(=O)CCN4CCCC4)cc3nc3cc(NC(=O)CCN4CCCC4)ccc23)cc1', '=', 5.07);

* * *

Entries and their viability, T/C
Test system: 636577-100-R-J1-PDC complex spheroid viability
Test: Anticancer human tumor 636577-100-R-J1-PDC cell line growth inhibition [GQUAD];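 further: viability read after seven days of drug exposure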;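 on viability, T/C: luminescence signal used as a proxy for viable cells; 100% = DMSO vehicle control wells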
Conditions: second compound 0.316 µM; first compound 0.00316 µM; stronger effect = lower value
RECORDED_ENDPOINT: viability, T/C (%)

INSERT INTO results (molecule, unit_tag, meas_value) VALUES
  ('Cc1[nH]c2ccccc2c1CCNCc1ccc(/C=C/C(=O)NO)cc1 + Cc1[nH]c2ccc(F)cc2c1-c1nc2c3cccnc3c3ncccc3c2[nH]1', '%', 37.7),
  ('CC[C@@]1(O)C(=O)OCc2c1cc1n(c2=O)Cc2cc3c(CN(C)C)c(O)ccc3nc2-1 + CN(C)c1ccc(Nc2c3ccc(NC(=O)CCN4CCCC4)cc3nc3cc(NC(=O)CCN4CCCC4)ccc23)cc1', '%', 65.9),
  ('Cn1ncnc1[C@H]1c2n[nH]c(=O)c3cc(F)cc(c23)N[C@@H]1c1ccc(F)cc1 + Cc1cnc(CNC(=O)c2c(=O)c3ccc(N4CCCN(C)CC4)nc3n3c2sc2ccccc23)cn1', '%', 23.2);
